From: ChEMBL document CHEMBL1765076

target: Steroid 17-alpha-hydroxylase/17,20 lyase (Rattus norvegicus)
Sequence (P11715 whole entry): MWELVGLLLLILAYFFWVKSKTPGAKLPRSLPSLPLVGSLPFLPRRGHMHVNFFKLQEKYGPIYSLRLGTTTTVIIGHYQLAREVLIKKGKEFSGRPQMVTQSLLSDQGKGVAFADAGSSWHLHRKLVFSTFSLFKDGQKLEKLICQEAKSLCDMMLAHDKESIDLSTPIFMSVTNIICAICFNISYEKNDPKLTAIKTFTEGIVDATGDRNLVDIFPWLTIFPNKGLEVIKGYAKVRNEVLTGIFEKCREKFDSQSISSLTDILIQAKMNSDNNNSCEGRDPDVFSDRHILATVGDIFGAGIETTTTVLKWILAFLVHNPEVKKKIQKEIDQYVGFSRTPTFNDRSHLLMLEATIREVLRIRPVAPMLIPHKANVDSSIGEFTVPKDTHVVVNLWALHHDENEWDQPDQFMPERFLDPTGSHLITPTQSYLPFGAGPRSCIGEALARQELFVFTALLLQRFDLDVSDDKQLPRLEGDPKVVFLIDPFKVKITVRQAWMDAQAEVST
Readings of IC50 for the listed compounds

>  <COMPOUND>
CC(=O)Nc1cccc(-c2ccc(C(O)(c3c[nH]cn3)C(C)C)cc2)c1 (racemic)

>  <IC50>
17 nM

$$$$
>  <COMPOUND>
CC(C)C(O)(c1ccc(-c2ccccc2)cc1)c1c[nH]cn1 (racemic)

>  <IC50>
33 nM

$$$$
>  <COMPOUND>
CC(=O)Nc1cccc(-c2ccc(C(O)(c3c[nH]cn3)C(C)C)cc2)n1 (racemic)

>  <IC50>
53 nM

$$$$
>  <COMPOUND>
CNC(=O)Nc1cccc(-c2ccc(C(O)(c3c[nH]cn3)C(C)C)cc2)c1 (racemic)

>  <IC50>
24 nM

$$$$
